- Experiment Description: gradient 5% acetonitrile 3 min, to 50% in 2 min, to 85% in 15 min, held 3 min, 100 µL/min
- Run Conditions: column: Zorbax Extend-C18 2.1 x 50 mm; eluents: water / acetonitrile, 0.1% formic acid
// reported RP-LC retention time for each item listed

Smiles Input | Unit Descriptor | RP-LC retention time
CCc1ccc(OCc2nc(CCN(C)C(=O)Nc3ccc(OC)cc3)no2)cc1 | s | 949
CNC(=O)C1CCN(C(=O)Nc2ccc(NC(=O)Nc3ccc(C)c(C)c3)cc2)CC1 | s | 700
O=C(CCn1cnc2cc(-c3noc(-c4cccc(Cl)c4)n3)ccc21)N1CCOCC1 | s | 754
O=C1CCN(S(=O)(=O)c2cccc3nsnc23)CCCCCCN1 | s | 724

* * *

- Experiment Description: gradient 5% acetonitrile 3 min, to 50% in 2 min, to 85% in 15 min, held 3 min, 100 µL/min
- Run Conditions: column: Zorbax Extend-C18 2.1 x 50 mm; eluents: water / acetonitrile, 0.1% formic acid
In plain terms, low RP-LC retention time, meaning strictly below 800 s, gives Condition met, and everything else gives Condition not met.

Smiles Input | Group Label
CCOCCOC1CCN(S(=O)(=O)Cc2ccccc2)CC1 | Condition not met
Cc1ccccc1Oc1nccn2c(=O)n(CC(=O)Nc3ccc(F)cc3)nc12 | Condition not met
Cc1cccc(CN2CCCn3nc(C(=O)NC4CCCC4)cc3C2=O)c1 | Condition not met
O=C(Cc1ccc2c(c1)OCO2)Nc1ccc2scnc2c1 | Condition met

* * *

- Experiment Description: gradient 5% acetonitrile 3 min, to 50% in 2 min, to 85% in 15 min, held 3 min, 100 µL/min
- Run Conditions: column: Zorbax Extend-C18 2.1 x 50 mm; eluents: water / acetonitrile, 0.1% formic acid
Parameter: RP-LC retention time (s)

Molecule | Parameter | Measured
COc1cccc(-c2ccnc3nc(C4CCC4)nn23)c1 | RP-LC retention time | 868
Cc1noc(C)c1-c1ccc(S(=O)(=O)Nc2ccc(Cl)cc2)cc1 | RP-LC retention time | 1000
CCc1nc2ccccc2c(=O)n1Cc1noc(-c2ccc(OC)c(OC)c2)n1 | RP-LC retention time | 894
CCCCN1C(=O)C(C)(C(=O)Nc2ccc(OCC)cc2)Oc2cccnc21 (stereo not drawn) | RP-LC retention time | 1060
O=C(Cc1cccc(F)c1)Nc1ccc2c(c1)CCC(=O)N2 | RP-LC retention time | 650
CCOC(=O)c1noc2nc(C)nc(NCc3ccc(F)cc3)c12 | RP-LC retention time | 1030
CC(C)C(=O)c1cn(CC(=O)COc2ccc(Oc3ccccc3)cc2)c2ccc(C(=O)O)cc12 | RP-LC retention time | 1140
CC(=O)Nc1ccc(NC(=O)C2CCN(S(=O)(=O)c3ccc4c(c3)sc(=O)n4C)CC2)cc1 | RP-LC retention time | 686
Cc1ccccc1OCCCC(=O)Nc1nc(-c2ccccc2)cs1 | RP-LC retention time | 1180
c1cc(CN2CCCCC2)cc(OCCCNc2nc3ccccc3s2)c1 | RP-LC retention time | 665
CS(=O)(=O)Nc1ccc(CC(=O)NCC(F)(F)F)cc1 | RP-LC retention time | 623
CCN1CCCn2cc(S(=O)(=O)Nc3ccc(Cl)cc3)cc2C1=O | RP-LC retention time | 765
Cc1cc(C)n(-c2ccnc(N3CCC(C(=O)NCCN4CCCCC4)CC3)n2)n1 | RP-LC retention time | 601
Cc1ccc(S(=O)(=O)Cc2cccc(-c3nc(-c4cccc(-c5ccnn5C)c4)no3)c2)cc1 | RP-LC retention time | 1140
CCn1c(C2CC(=O)N(Cc3ccccc3)C2)nc2ccccc21 (stereo not drawn) | RP-LC retention time | 650
Cc1ccc(NC(=O)N2CCCC2c2nncn2-c2ccccc2)c(Cl)c1 (stereo not drawn) | RP-LC retention time | 794
COc1ccc(C(C)NS(=O)(=O)c2cc(-c3nc(C(C)(C)C)cs3)cs2)cc1 (stereo not drawn) | RP-LC retention time | 1240
CSc1ccc(-c2noc(Cc3nnc(-c4ccc(Cl)cc4)o3)n2)cc1 | RP-LC retention time | 1120
CCc1nc(-c2cc(S(=O)(=O)N3CCC(C(=O)Nc4ccc(OC)cc4)CC3)c(C)s2)no1 | RP-LC retention time | 1000
CSc1ccc(-c2nc3cnccn3c2Nc2cccc(C)c2C)cc1 | RP-LC retention time | 1060
CC1CCCN(c2cc(SCC(=O)Nc3ccc(F)cc3)ncn2)C1 (stereo not drawn) | RP-LC retention time | 955
Cc1ccc2c(c1)C1CC(C)(O2)N(c2cccc(C(=O)O)c2)C(=O)N1 (stereo not drawn) | RP-LC retention time | 912
O=C1CC(c2cccc(Cl)c2)Cc2nc(N3CCN(c4ccccc4)CC3)ncc21 (stereo not drawn) | RP-LC retention time | 1340
C=CCNC(=O)c1sc(Nc2ccc(Cl)cn2)nc1C | RP-LC retention time | 746
COc1cc(=O)n2c(c1C(=O)NC1CCc3ccccc31)CCCC2 (stereo not drawn) | RP-LC retention time | 686
CCc1ccccc1N1C(=O)CN(S(=O)(=O)c2ccccc2)CC1(C)C(=O)NC1CCCC1 (stereo not drawn) | RP-LC retention time | 960
CC1=C2C(=O)[C@H]3[C@@H](CC=C4C[C@@H](O)CC[C@@]43C)[C@@H]2CC[C@]12O[C@@H]1C[C@H](C)CN[C@H]1C2C (stereo partly drawn) | RP-LC retention time | 699
CCOc1ccc(-c2noc(Cn3c(=O)n(CC4CCCO4)c(=O)c4ccccc43)n2)cc1 (stereo not drawn) | RP-LC retention time | 1050
